The reported measurements were obtained from patent US5563176A.

- Test system: 242, melanoma
- assayOverview: inhibition of thymidine incorporation after two hour exposure, 242
- Type: cell-based
- experimentalContext: 2 h; Table 1; 242, two hour exposure
measureName: IC50 (nM)
# unit: nM | format: bare number

State the recorded IC50 for this entry: CC1=C2C(=C[C@@](C)(CO)C2O)C(=O)[C@](C)(O)C12CC2 (some centres unmarked)
607

====

- Tested on: CEM Dox (gp170+) variant cells
- assayOverview: sensitivity of mdr lines, CEM Dox
- Assay type: cell-based
measureName: IC50 (nM)
# unit: nM | format: bare number

State the recorded IC50 for this entry: CC1=C2C(=C[C@@](C)(CO)C2O)C(=O)[C@](C)(O)C12CC2 (stereo partly shown)
14
